Below, each entry is listed with its recorded pIC50.
Biological target: fibrinogen receptor (GpIIb/IIIa) (Homo sapiens, UniProt P05106+P08514)
Construct: gel filtration using Sepharose 2B column to give a blood platelet suspension; endogenous in cells
Sequence (P08514 32-887 limits assumed): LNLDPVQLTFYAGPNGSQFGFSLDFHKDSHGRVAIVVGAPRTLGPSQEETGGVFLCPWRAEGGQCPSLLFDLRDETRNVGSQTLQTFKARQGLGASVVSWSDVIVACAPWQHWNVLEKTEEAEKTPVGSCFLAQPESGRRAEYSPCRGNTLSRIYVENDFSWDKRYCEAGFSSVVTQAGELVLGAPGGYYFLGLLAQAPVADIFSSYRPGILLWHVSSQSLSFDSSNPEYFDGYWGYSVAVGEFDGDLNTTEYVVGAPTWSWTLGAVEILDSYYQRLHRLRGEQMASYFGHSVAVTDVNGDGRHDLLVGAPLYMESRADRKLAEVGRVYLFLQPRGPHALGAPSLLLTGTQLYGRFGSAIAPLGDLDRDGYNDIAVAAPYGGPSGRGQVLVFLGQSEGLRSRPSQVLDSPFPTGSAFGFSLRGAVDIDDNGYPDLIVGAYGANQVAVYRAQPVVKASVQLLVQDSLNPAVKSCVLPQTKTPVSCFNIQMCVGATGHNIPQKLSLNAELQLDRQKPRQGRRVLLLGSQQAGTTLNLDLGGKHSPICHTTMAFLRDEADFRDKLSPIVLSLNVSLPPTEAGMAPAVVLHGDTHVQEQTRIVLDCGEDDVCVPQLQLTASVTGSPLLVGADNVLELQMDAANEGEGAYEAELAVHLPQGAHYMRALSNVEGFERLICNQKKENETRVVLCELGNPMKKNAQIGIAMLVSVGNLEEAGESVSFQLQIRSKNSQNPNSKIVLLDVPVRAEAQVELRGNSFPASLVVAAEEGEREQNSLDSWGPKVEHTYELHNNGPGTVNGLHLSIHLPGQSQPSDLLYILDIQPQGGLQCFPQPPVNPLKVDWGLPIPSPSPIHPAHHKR
Sequence (P08514 891-1039 partner limits assumed): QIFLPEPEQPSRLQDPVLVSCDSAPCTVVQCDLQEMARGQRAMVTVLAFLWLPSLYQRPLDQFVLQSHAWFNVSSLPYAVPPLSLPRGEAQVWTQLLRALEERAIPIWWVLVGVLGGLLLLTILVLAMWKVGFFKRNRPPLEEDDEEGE
Sequence (P05106 27-788): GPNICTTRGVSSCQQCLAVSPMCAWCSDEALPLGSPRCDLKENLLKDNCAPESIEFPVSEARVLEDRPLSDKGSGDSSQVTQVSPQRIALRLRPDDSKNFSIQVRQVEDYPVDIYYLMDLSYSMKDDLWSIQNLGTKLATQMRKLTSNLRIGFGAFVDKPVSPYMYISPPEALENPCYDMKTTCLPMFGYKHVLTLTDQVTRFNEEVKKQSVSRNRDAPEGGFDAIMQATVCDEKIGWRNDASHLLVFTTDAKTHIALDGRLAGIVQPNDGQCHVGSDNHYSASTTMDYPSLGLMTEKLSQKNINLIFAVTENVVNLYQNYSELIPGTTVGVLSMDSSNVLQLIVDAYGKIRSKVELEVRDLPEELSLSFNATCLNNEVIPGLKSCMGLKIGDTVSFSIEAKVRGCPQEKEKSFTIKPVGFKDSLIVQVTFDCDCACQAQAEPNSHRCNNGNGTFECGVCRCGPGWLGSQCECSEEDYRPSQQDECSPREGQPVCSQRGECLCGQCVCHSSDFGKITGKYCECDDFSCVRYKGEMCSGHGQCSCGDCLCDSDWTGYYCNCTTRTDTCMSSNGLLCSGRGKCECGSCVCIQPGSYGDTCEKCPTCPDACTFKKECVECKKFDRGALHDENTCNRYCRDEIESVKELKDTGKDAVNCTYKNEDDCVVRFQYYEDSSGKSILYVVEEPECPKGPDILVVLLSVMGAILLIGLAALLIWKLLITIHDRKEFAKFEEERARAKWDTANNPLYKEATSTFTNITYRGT
Assay: Human blood platelet fibrinogen binding test
Details: inhibition of binding of 125I labelled human fibrinogen to human blood platelet suspension; ADP final concentration 10 µM
pIC50: −log10 of the molar value. Where a name gives a salt, the structure may show the parent alone.
reported_endpoint: pIC50

{"columns": ["compound", "reported_endpoint", "numeric_value"],
 "data": [
  ["Cc1c(C(=O)NCCC(=O)O)sc(=NC(=O)c2ccc(C(=N)N)cc2)n1C [Compound 5, hydrobromide]", "pIC50", 8.29],
  ["Cc1c(C(=O)NCCC(=O)O)sc(=NC(=O)c2ccc(C(=N)NCc3ccccc3)cc2)n1C", "pIC50", 8.10],
  ["Cc1c(C(=O)NCCC(=O)O)sc(=NC(=O)c2ccc(C(=N)N(C)C)cc2)n1C [Compound 37, hydrobromide]", "pIC50", 8.89],
  ["COC(=O)CCNC(=O)c1sc(=NC(=O)c2ccc(C#N)cc2)n(C(C)C)c1C", "pIC50", 8.20],
  ["CNC(=N)c1ccc(C(=O)N=c2sc(C(=O)NCCC(=O)O)c(C)n2C)cc1 [Compound 7, hydrobromide]", "pIC50", 8.57],
  ["Cc1c(C(=O)NCCC(=O)O)sc(=NC(=O)c2ccc(C(=N)N(C)Cc3ccccc3)cc2)n1C [Compound 35, hydrobromide]", "pIC50", 9.00]
]}

These measurements were taken from patent EP0649843B1.
